Overview of recorded melting point for various compounds
Counter-ions that a name gives are not always drawn.

// worked examples, melting point included
CC(C)(C)CC(=O)c1c(-c2ccc3cc(OCC(=O)O)ccc3c2)oc2ccccc12 : 207 to 209 °C
O=C(O)COc1ccc2cc(-c3oc4ccccc4c3C(=O)CC3CCCC3)ccc2c1Br : 150 to 152 °C

Q: Indicate the recorded melting point value for this compound: `CCCCC(=O)c1c(-c2ccc3c(C)c(OCC(=O)O)ccc3c2)oc2ccccc12`
Ans: 153 to 155 °C

Q: Indicate the recorded melting point value for this compound: `CCCCC(=O)c1c(-c2ccc3cc(OCc4nnn[nH]4)ccc3c2)oc2ccc(Cl)cc12`
Ans: 178 to 180 °C

Q: Indicate the recorded melting point value for this compound: `O=C(O)COc1ccc2cc(-c3oc4ccccc4c3C(=O)CC3CCCC3)ccc2c1`
Ans: 177 to 178 °C

Q: Indicate the recorded melting point value for this compound: `O=C(O)COc1ccc2cc(-c3oc4ccccc4c3-c3ccccc3)ccc2c1-c1ccccc1`
Ans: 202 to 203 °C

Q: Indicate the recorded melting point value for this compound: `CCCCCc1c(-c2ccc3cc(OCc4nnn[nH]4)ccc3c2)oc2ccccc12`
Ans: 178 to 180 °C

Q: Indicate the recorded melting point value for this compound: CCCCC(=O)c1c(-c2ccc3c(-c4ccc(C(F)(F)F)cc4)c(OCC(=O)O)ccc3c2)oc2ccccc12 (as salt: sodium) [Example 15, acetic acid, sodium salt]
Ans: 274 to 275 °C (dec.)

Q: Indicate the recorded melting point value for this compound: `CC(C)CC(=O)c1c(-c2ccc3cc(OCC(=O)O)cc(Br)c3c2)oc2ccccc12`
Ans: 140 to 142 °C
